The entries that follow carry IC50 values tested on Neuropeptide Y receptor type 5 (Mus musculus), drawn from several published reports.
Numbers only, in nM.

[[record]]
cpd_smiles = "N#Cc1ccccc1C(=O)N1CCC(C(=O)Nc2cccc(-c3ccccn3)c2)CC1"
study_target = "Neuropeptide Y receptor type 5 (Mus musculus)"
observed_value = 0.31


For each of the compounds below, state IC50.
1. CCS(=O)(=O)NC[C@H]1CC[C@H](Nc2nc(-c3ccc(F)cc3F)no2)CC1
2. CS(=O)(=O)NC[C@H]1CC[C@H](Nc2nc(-c3cccc(Cl)c3)no2)CC1
3. N#Cc1ccccc1C(=O)N1CC[C@H](C(=O)Nc2ccn(-c3ccccc3F)n2)C1
4. N#Cc1ccccc1O[C@H]1CC[C@@H](C(=O)Nc2ccc(OC(F)F)cc2)CC1

[0.18, 0.9, 0.25, 2.3]

For each of the compounds below, state IC50.
1. CC(C)(C)S(=O)(=O)N[C@H]1CC[C@H](c2cc3cc(-c4ccccn4)cnc3[nH]2)CC1
2. CCS(=O)(=O)NC[C@H]1CC[C@H](Nc2nc(-c3ccc(F)cc3)no2)CC1
3. CC(C)S(=O)(=O)NC[C@H]1CC[C@H](Nc2ccn(-c3ccccc3Cl)n2)CC1

1. 0.75
2. 0.32
3. 0.16
